Every entry's value here was drawn from patent US9650390B2.

# assayName: In vitro dissociation in blood plasma of rat
# Format: in vitro ADME, SD rats
# experimentalContext: fresh SD rat plasma, 37° C., 10 min incubation
measuredQuantity: Sampling time/Dissociation percent (%) 10 min
// return numeric value only (unit: %, not printed)

[Q] For the molecule shown here, CCN(CC)CC[C@](C)(C(=O)O[C@@H](C(=O)O[C@H]1C[C@@]2(O)[C@@H](OC(=O)c3ccccc3)[C@@H]3[C@]4(OC(C)=O)CO[C@@H]4C[C@H](OC)[C@@]3(C)C(=O)[C@H](OC)C(=C1C)C2(C)C)[C@@H](NC(=O)OC(C)(C)C)c1ccccc1)C(F)(F)F.Cl , give the reported Sampling time/Dissociation percent (%) 10 min.
[A] 95.9
